- Condition context: 293.15 K; 2000 kPa; Liquid
Recorded measurements of mass density, one per entry
Answer in kg/m3, number only, no unit symbol.

Look over these answered cases.
Compound: CCCCCCn1cc[n+](C)c1.F[P-](F)(F)(F)(F)F [1-hexyl-3-methylimidazolium hexafluorophosphate]
Value reported: 1300.8

Compound: CCCCCCCC[n+]1ccn(C)c1.F[B-](F)(F)F [1-methyl-3-octylimidazolium tetrafluoroborate]
Value reported: 1109.6

Compound: CCCCCCCC[n+]1ccn(C)c1.F[P-](F)(F)(F)(F)F [1-octyl-3-methylimidazolium hexafluorophosphate]
Value reported: 1243.5

Compound: CCCCn1cc[n+](C)c1.F[B-](F)(F)F [1-butyl-3-methylimidazolium tetrafluoroborate]
Value reported: 1207.7

Dear colleague, I am looking for the recorded mass density of the following compound: CCCCn1cc[n+](C)c1.O=S(=O)([O-])C(F)(F)F [1-butyl-3-methylimidazolium trifluoromethanesulfonate] 1307.1
